Target: T1, recombinant human ASM protein (human, UniProt P17405 47-630)
T1 construct: Recombinant human ASM in solution; also called acid sphingomyelinase (ASM) protein
T1 sequence: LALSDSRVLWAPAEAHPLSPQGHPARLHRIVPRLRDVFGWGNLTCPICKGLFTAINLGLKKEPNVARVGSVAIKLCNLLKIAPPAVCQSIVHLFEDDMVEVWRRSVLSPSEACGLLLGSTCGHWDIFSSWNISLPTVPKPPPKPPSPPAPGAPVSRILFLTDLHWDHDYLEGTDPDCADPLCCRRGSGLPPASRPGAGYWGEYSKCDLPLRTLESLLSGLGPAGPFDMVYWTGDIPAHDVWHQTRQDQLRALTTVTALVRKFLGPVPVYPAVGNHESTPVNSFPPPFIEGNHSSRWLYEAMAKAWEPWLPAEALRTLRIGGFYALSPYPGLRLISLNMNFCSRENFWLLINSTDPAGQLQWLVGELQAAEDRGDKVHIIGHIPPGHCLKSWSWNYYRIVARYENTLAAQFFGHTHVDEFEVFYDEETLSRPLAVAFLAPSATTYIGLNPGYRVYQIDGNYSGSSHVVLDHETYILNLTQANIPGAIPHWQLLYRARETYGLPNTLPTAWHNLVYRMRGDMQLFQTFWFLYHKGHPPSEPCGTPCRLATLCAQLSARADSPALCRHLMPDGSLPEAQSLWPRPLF
Assay: BLI (Octet), antibody on AHC sensor
Overview of reported koff across a group of binders:
Give the value in s⁻¹ but do not write s⁻¹ after it.

Known koff results, listed for orientation:
{"Binder": "#9104a-C5 (antibody, human IgG4 S228P, lambda, V domains shown, VH of #9104v-H19 with VL of #9104v-L23; full-length IgG, lambda) VH: EVQLLESGGGLVQPGGSLRLSCAASGFTFSNYYMSWVRQAPGKGLEWVSGIYYGSGVPYYADSVKGRFTISRDNSKNTLYLQMNSLRAEDTAVYYCARDTPGFDYWGQGTLVTVSS VL: QSVLTQPPSASGTPGQRVTISCTGSSSNIGNNAVNWYQQLPGTAPKLLIYYDQFRPSGVPDRFSGSKSGTSASLAISGLRSEDEADYYCGAWDYSLSAYVFGGGTKLTVLG", "koff (s⁻¹)": "6.46e-05"}
{"Binder": "#9104a-D2 (antibody, human IgG4 S228P, lambda, V domains shown, VH of #9104v-H11 with VL of #9104v-L64; full-length IgG, lambda) VH: EVQLLESGGGLVQPGGSLRLSCAASGFTFSNYYMSWVRQAPGKGLEWVSGIYYGSGIPYYADSVKERFTISRDNSKNTLYLQMNSLRAEDTAVYYCARDTPGFDYWGQGTLVTVSS VL: QSVLTQPPSASGTPGQRVTISCTGSSSNIGNNAVNWYQQLPGTAPKLLIYYDYFSHSGVPDRFSGSKSGTSASLAISGLRSEDEADYYCGAWDYSLSAYVFGGGTKLTVLG", "koff (s⁻¹)": "5.22e-05"}

What value of koff has been reported for the following binder? #9104a-A5 (antibody, human IgG4 S228P, lambda, V domains shown, VH of #9104v-H19 with VL of #9104v-L20; full-length IgG, lambda) VH: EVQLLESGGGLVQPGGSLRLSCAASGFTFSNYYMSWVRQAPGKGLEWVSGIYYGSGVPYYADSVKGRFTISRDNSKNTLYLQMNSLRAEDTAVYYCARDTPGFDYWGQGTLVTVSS VL: QSVLTQPPSASGTPGQRVTISCTGSSSNIGNNAVNWYQQLPGTAPKLLIYYDMFRPGGVPDRFSGSKSGTSASLAISGLRSEDEADYYCGAWDYSLSAYVFGGGTKLTVLG
3.93e-05
